Origin of values: the METLIN SMRT retention time set (Domingo-Almenara et al. 2019)

assay: gradient 5% acetonitrile 3 min, to 50% in 2 min, to 85% in 15 min, held 3 min, 100 µL/min; settings: column: Zorbax Extend-C18 2.1 x 50 mm; eluents: water / acetonitrile, 0.1% formic acid
measureName: RP-LC retention time (s)

>>> datavalue("Cc1cccc(Oc2nccn3c(=O)n(CC(=O)NCCCc4ccccc4)nc23)c1C")
944
>>> datavalue("CC(C)c1cc(C(=O)NC2CC2)n[nH]1")
625
>>> datavalue("CCc1ccc(NC(=O)CSc2nnc3c4cc(-c5ccc(F)cc5)nn4ccn23)cc1")
984
>>> datavalue("CC(C)Cn1nc(CNC(=O)C2CCC2)c2ccccc21")
872
>>> datavalue("CNC(=O)[C@@H]1CCCN1C(=O)c1ccccc1")
587
>>> datavalue("O=C(CSc1ccc(F)cc1)Nc1nnc(COc2ccccc2)o1")
790
>>> datavalue("CCc1nc(-c2csc(S(=O)(=O)N3CCC(C(=O)Nc4cccc(F)c4)CC3)c2)no1")
1010
>>> datavalue("COCCN1C(=O)[C@H]2CN(S(=O)(=O)c3ccccc3)C[C@H]2C1=O")
712
>>> datavalue("COc1cccc(CCNC(=O)C2CCCN(c3ncnc4c3nc3n4CCCCC3)C2)c1OC (stereo not given)")
758
>>> datavalue("CCc1nnc(-c2cn(CC(=O)Nc3c(Cl)cc(OC)cc3OC)c3ccccc23)o1")
909
>>> datavalue("Cc1nc2cc(-c3noc(Cc4ccccc4Br)n3)ccc2o1")
1120
>>> datavalue("CCc1cc(=O)n(CC(=O)NCc2ccc(F)c(Cl)c2)c(N2CCOCC2)n1")
764
>>> datavalue("Cc1csc(-c2ccc(N3CCN(C(=O)c4cc(Cl)ccc4F)CC3)nc2)n1")
943
>>> datavalue("Cc1nn2c(CNS(=O)(=O)c3ccccc3C)c(-c3ccccc3)nc2s1")
827
>>> datavalue("COCCNC(=O)c1ncoc1-c1ccccc1C(=O)N1CCCC1")
635
>>> datavalue("CCOc1ccc(OC(=O)C2CCN(c3nc4ccccc4[nH]3)CC2)cc1")
712
>>> datavalue("CCOc1ccc(CNC(=O)CN2CCN(Cc3ccc(F)cc3)C2=O)cc1OC")
751
>>> datavalue("O=C1CC(C(=O)N2CCN(Cc3ccccc3)CC2)CN1CCc1ccccc1 (stereo not given)")
740
>>> datavalue("Fc1cccc(-c2noc(-c3ccc(N4CCN(Cc5ccc6c(c5)OCO6)CC4)nc3)n2)c1")
834
>>> datavalue("CCOc1ccc(NC(=O)N2CCC[C@@H]2C(=O)NCc2csc(-c3ccccc3)n2)cc1")
808
